System: KRAS-mutant PDC complex spheroid viability
protocol: Anticancer human tumor 186277-243-T-J2-PDC patient-derived colon adenocarcinoma cell line growth inhibition [KRAS2]
test_settings: second compound 0.1 µM; first compound 1 µM; stronger effect = lower value
endpoint_name: viability, T/C (%)
Hi! Could you send only the number? It should be in %, unit omitted.

COC(=O)c1ccc2c(C(=Nc3ccc(N(C)C(=O)CN4CCN(C)CC4)cc3)c3ccccc3)c(O)[nH]c2c1 + C=CC(=O)N1CCN(c2nc(=O)n(-c3c(C)ccnc3C(C)C)c3nc(-c4c(O)cccc4F)c(F)cc23)C(C)C1
104

Record CC1(C)CCC(CN2CCN(c3ccc(C(=O)NS(=O)(=O)c4ccc(NCC5CCOCC5)c([N+](=O)[O-])c4)c(Oc4cnc5[nH]ccc5c4)c3)CC2)=C(c2ccc(Cl)cc2)C1 + CNCc1ccccc1-c1csc(C(C)Nc2nc(C)nc3cc(OC)c(OC)cc23)c1 , field viability, T/C: 110

Just so you know, measured viability, T/C for CC1(C)CCC(CN2CCN(c3ccc(C(=O)NS(=O)(=O)c4ccc(NCC5CCOCC5)c([N+](=O)[O-])c4)c(Oc4cnc5[nH]ccc5c4)c3)CC2)=C(c2ccc(Cl)cc2)C1 + C=CC(=O)N1CCN(c2nc(OCC3CCCN3C)nc3c2CCN(c2cccc4cccc(C)c24)C3)CC1CC#N came out at 108

// field: viability, T/C; key: CC(C)NCC(C(=O)N1CCN(c2ncnc3c2C(C)CC3O)CC1)c1ccc(Cl)cc1 (centres undefined) + COc1cc2nc(C)nc(NC(C)c3cc(N)cc(C(F)(F)F)c3)c2cc1OC1CCOC1 ; value = 34.8

* * *

// values below are reported pIC50
Tested on: KRAS-mutant PDC complex spheroid viability
protocol: Anticancer human tumor 186277-243-T-J2-PDC cell line growth inhibition [KRAS2]
test_settings: curve of first compound; second compound 3.16 µM
pIC50: −log10 of the molar value.

As a guide, the following entries are already answered.
CC1OCC2(CCN(c3cnc(Sc4ccnc(N)c4Cl)c(N)n3)CC2)C1N (centres undefined) + COc1cc2nc(C)nc(NC(C)c3cc(N)cc(C(F)(F)F)c3)c2cc1OC1CCOC1
< 5.00
CC(C)NCC(C(=O)N1CCN(c2ncnc3c2C(C)CC3O)CC1)c1ccc(Cl)cc1 (centres undefined) + CNCc1ccccc1-c1csc(C(C)Nc2nc(C)nc3cc(OC)c(OC)cc23)c1
> 7.50
Cn1ncnc1[C@H]1c2n[nH]c(=O)c3cc(F)cc(c23)N[C@@H]1c1ccc(F)cc1 + C=CC(=O)N1CCN(c2nc(OCC3CCCN3C)nc3c2CCN(c2cccc4cccc(C)c24)C3)CC1CC#N
> 9.50
CC(=O)Nc1cccc(-n2c(=O)n(C3CC3)c(=O)c3c(Nc4ccc(I)cc4F)n(C)c(=O)c(C)c32)c1 + C=CC(=O)N1CCN(c2nc(OCC3CCCN3C)nc3c2CCN(c2cccc4cccc(C)c24)C3)CC1CC#N
> 10.00
CC(=O)OC12COC1CC(O)C1(C)C(=O)C(O)C3=C(C)C(OC(=O)C(O)C(NC(=O)OC(C)(C)C)c4ccccc4)CC(O)(C(OC(=O)c4ccccc4)C21)C3(C)C (centres undefined) + C=CC(=O)N1CCN(c2nc(OCC3CCCN3C)nc3c2CCN(c2cccc4cccc(C)c24)C3)CC1CC#N
> 8.00
CC(=O)OC12COC1CC(O)C1(C)C(=O)C(O)C3=C(C)C(OC(=O)C(O)C(NC(=O)OC(C)(C)C)c4ccccc4)CC(O)(C(OC(=O)c4ccccc4)C21)C3(C)C (centres undefined) + COc1cc2nc(C)nc(NC(C)c3cc(N)cc(C(F)(F)F)c3)c2cc1OC1CCOC1
> 8.00

pIC50 recorded for this molecule, CN(C)C/C=C/C(=O)Nc1cc2c(Nc3ccc(F)c(Cl)c3)ncnc2cc1O[C@H]1CCOC1 + COc1cc2nc(C)nc(NC(C)c3cc(N)cc(C(F)(F)F)c3)c2cc1OC1CCOC1 , is < 7.00

Data point: COc1cc(Nc2ncc3c(n2)-c2ccc(Cl)cc2C(c2c(F)cccc2OC)=NC3)ccc1C(=O)O + C=CC(=O)N1CCN(c2nc(=O)n(-c3c(C)ccnc3C(C)C)c3nc(-c4c(O)cccc4F)c(F)cc23)C(C)C1 ; pIC50 = > 7.50

GET /value?item= CC(=O)OC12COC1CC(O)C1(C)C(=O)C(O)C3=C(C)C(OC(=O)C(O)C(NC(=O)OC(C)(C)C)c4ccccc4)CC(O)(C(OC(=O)c4ccccc4)C21)C3(C)C (centres undefined) + C=CC(=O)N1CCN(c2nc(=O)n(-c3c(C)ccnc3C(C)C)c3nc(-c4c(O)cccc4F)c(F)cc23)C(C)C1 &field=pIC50 returns > 8.00

Entry source: PubChem BioAssay AID1963875
